Data provenance is patent US20260199576A1.

# Kd listing for each entry below
- SYSTEM: T1, Biotinylated human integrin αvβ6 (ACROBiosystems, product number IT6-H82E4) (human, UniProt P06756 31-992; P18564 22-707, biotinylated (Avi tag at the C-terminus) ; Biotin on the Avi tag at the C-terminus of the αv chain; the tag is not in the letters.)
- T1 construct: Bought heterodimer; also called biotinylated integrin αvβ6; not shown: basic tail on the β6 chain
- T1 sequence (P06756 31-992 limits assumed, chain 1 of 2): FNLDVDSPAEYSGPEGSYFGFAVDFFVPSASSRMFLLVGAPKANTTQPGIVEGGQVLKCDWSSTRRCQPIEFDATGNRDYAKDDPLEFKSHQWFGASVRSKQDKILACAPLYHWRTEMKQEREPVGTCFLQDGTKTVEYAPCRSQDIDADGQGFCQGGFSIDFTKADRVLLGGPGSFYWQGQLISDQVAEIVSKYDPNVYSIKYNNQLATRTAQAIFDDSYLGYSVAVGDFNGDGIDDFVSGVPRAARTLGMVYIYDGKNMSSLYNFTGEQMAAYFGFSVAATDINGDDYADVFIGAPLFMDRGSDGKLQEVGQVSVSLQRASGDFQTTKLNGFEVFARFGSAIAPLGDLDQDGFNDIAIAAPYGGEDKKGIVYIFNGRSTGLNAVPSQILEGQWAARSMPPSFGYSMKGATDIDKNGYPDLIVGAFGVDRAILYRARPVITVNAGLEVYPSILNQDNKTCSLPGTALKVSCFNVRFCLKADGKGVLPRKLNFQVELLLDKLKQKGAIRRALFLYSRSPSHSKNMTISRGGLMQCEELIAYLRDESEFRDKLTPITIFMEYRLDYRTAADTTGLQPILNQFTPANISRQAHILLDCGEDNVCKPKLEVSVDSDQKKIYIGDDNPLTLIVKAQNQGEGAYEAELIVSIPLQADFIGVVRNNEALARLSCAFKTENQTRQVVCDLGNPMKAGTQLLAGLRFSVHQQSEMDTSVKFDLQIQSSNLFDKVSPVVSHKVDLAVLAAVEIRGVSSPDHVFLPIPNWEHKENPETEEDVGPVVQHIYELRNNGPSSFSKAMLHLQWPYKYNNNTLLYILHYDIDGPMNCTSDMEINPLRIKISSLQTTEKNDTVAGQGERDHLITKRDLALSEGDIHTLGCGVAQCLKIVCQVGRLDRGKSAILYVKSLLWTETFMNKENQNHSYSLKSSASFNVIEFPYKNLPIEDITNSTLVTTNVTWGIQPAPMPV
- T1 sequence (P18564 22-707 limits assumed, chain 2 of 2): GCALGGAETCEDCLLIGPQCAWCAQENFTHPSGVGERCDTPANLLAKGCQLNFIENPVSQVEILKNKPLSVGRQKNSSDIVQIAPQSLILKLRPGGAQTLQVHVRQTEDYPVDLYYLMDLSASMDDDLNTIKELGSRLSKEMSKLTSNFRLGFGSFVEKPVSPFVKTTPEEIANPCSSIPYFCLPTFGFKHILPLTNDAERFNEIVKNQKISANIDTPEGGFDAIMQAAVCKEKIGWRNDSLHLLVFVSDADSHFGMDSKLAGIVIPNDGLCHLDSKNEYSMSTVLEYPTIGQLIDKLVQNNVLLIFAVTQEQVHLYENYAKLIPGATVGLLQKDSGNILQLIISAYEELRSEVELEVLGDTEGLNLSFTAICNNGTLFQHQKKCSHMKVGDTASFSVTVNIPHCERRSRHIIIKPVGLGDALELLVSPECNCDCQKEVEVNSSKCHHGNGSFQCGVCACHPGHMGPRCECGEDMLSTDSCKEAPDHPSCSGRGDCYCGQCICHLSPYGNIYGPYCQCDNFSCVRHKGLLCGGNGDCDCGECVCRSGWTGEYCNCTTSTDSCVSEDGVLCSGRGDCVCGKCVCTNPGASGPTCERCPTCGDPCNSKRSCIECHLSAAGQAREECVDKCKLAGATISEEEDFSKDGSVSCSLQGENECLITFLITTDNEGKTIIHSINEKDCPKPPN
- PROTOCOL SUMMARY: BLI (Octet RED96), biotinylated integrin αvβ6 on biosensor, antibody in solution

{"BINDER": "UC antibody 2 (antibody, V domains shown, Human monoclonal IgG from a UC patient, expressed in CHO cells) VH: EVQLVESGGGLVKPGGSLRVSCVVSGFTITNAWMSWVRQAPGKGLEWVGRSKSKTDGGTTDYIAPVKGRFTISRDDSKNTLYLEMNSLKTEDTAVYYCATDRPLKLRGRDYNYYVMDVWGQGTTVTVSS VL: DIQMTQSPSSLSASVGDRVTITCRASQSIARSLNWYQQKPGKAPNLLIYAASTLQSGVPSRFSGSGSGTDFTLTIGSLQPEDFATYSCQQSSSSPLTFGGGTRVEIK", "MEASURE": "Kd", "RESULT": "1.95 nM"}
{"BINDER": "UC antibody 7 (antibody, V domains shown, Human monoclonal IgG from a UC patient, expressed in CHO cells) VH: VQLVESGGGVVQPGRSLRLSCAASGFTFSSYGMHWVRQAPGKGLEWVAFISYDGINKYYADSVKGRFTISRDNSKDTLYLQMNSLRAEDTAVYYCAKVIPRIRGSGDKAGIKDYYYYGMDVWGQGTTVTVSS VL: EIVLTQSPATLSLSPGERATLSCRASQSVSSYLAWYQQKPGQAPRLLIYDASNRATGIPARFSGSGSGTDFTLTISSLEPEDFAVYYCQQRSNWLTFGGGTKVEIK", "MEASURE": "Kd", "RESULT": "5.18 nM"}

Here is another binder to look at.
Consider UC antibody 6 (antibody, V domains shown, Human monoclonal IgG from a UC patient, expressed in CHO cells) VH: QVQLVQSGAEVKKPGASVKVSCKASGHTFSSFGISWVRQAPGQGLEWMGWISAYNGNTNSAQKFQGRVTMTTDTSTSTAYMELRSLRSDDTAVYYCARDRGFRGDTAMIKGGMDVWGQGTTVTVSS VL: QSVLTQPPSVSGAPGQRVTISCTGSSSTIGANNDVHWYQQLPGTAPKLLIYGNKNRPSGVSDRFSGSKSGTSASLAITGLQAEDEADYYCQSYDSSLSDLYVFGTGTKVTVL . Its measured Kd is 20.8 nM
